Values compiled from PubChem BioAssay (Tox21).

biological target: Cytochrome P450 1A2 (Homo sapiens) (UniProt P05177); test: Cytochrome P450 Family 1 Subfamily A Member 2 (CYP1A2) small molecule antagonists: luciferase reporter qHTS assay (AID 1671199); conditions: P450-Glo CYP1A2 enzyme, luciferin luminescence, 1 h; series mostly up to 115 µM; note: nearly all actives have a fitted effect of over 50% in size
Sequence (P05177 whole entry, looked up): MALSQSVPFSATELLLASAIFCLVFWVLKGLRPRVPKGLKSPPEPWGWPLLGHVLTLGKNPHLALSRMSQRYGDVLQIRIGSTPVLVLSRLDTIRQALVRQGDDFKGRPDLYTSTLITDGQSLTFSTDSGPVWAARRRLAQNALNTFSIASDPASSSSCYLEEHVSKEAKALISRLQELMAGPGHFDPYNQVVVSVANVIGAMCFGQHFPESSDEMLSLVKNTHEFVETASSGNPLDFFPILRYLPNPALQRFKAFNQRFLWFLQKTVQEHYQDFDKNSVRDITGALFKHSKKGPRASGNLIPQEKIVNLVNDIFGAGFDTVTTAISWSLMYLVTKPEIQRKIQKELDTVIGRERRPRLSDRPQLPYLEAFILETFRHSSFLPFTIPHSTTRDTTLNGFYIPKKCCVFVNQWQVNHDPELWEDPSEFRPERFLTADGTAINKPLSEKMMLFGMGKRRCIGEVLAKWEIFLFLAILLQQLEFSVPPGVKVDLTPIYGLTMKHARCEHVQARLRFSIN
Inconclusive results are not listed. Calls of active or inactive are those of the source. Calls come from the whole dose curve; as a rule, active = well fitted inhibition curve with a large enough effect in the repeat runs; inconclusive = weak or mixed curves; inactive = no such curve, though single readings can be large or run the other way.
Output constraint: value belongs to true for active, false for inactive

Example entries and their recorded answers appear below.
>>> class_name("CCCCCCCCCCOC(C)=O")
"false"
>>> class_name("CC1=C(O)C(=O)C(C)O1 (stereo not given)")
"true"
>>> class_name("CC(C)c1ccc(C=O)cc1")
"false"

[in] I would be grateful if you could indicate the recorded call for ONc1ccccc1 .
[out] true

[in] Please give the result for CC(=O)CC(=O)Nc1ccc(C)cc1C too.
[out] true

[in] Please give the result for CCOc1cccc(N)c1 too.
[out] true

---

Test: A CellTox Green Cytotoxicity Assay to monitor cytotoxicity in HEK293 cells - 16 hour (AID 1224888); note: % is set by controls: 0 for no effect and ±100 for the full control effect; nearly all actives have a fitted effect of over 35% in size
Conditions: CellTox Green fluorescence; series mostly up to 76.8 µM
Excerpt: National Center for Advancing Translational Sciences [NCATS] NIH Chemical Genomics Center [NCGC] U.S. Environmental Protection Agency [EPA] National Institutes of Environmental Health Sciences [NIEHS] National Toxicology Program [NTP] Cell-based models are critical for drug discovery. […] Viable cells produce no appreciable increases in fluorescence. Therefore, the fluorescence signal produced by the binding interaction with dead cell DNA is proportional to cytotoxicity. […]
Inconclusive results are not listed. Calls of active or inactive are those of the source. Calls come from the whole dose curve; as a rule, active = well fitted activation curve with a large enough effect in the repeat runs; inconclusive = weak or mixed curves; inactive = flat fitted curve, though single readings scatter.
Quantity name: activity change

Recorded activity change, per entry:
>>> value_reported("C=C(C)[C@@H]1CC=C(C)CC1")
"inactive"
>>> value_reported("OCC(O)CN1CCN(c2ccccc2)CC1 (configuration not stated)")
"inactive"
>>> value_reported("CC(=O)OC(C)=O")
"inactive"
>>> value_reported("OC[C@@H](O)C(O)[C@@H](O)CO (some centres not stated)")
"inactive"
>>> value_reported("CC1(C)Oc2ccc(C#N)cc2[C@@H](N2CCCC2=O)[C@@H]1O")
"inactive"

[in] Give its activity change value. Item: CC(C)CCOC(=O)c1ccccc1
[out] inactive

---

test: qHTS assay to identify small molecule antagonists of the estrogen related receptor (ERR) signaling pathway from Tox21 library - cell viability counter screen (AID 1224834); conditions: ERR reporter cells viability, CellTiter-Fluor, 17.5 h; series mostly up to 92.4 µM; note: % is set by controls: 0 for no effect and ±100 for the full control effect; nearly all actives have a fitted effect of over 30% in size
Records with an inconclusive call do not appear. Activity calls are given as the source filed them. Calls come from the whole dose curve; as a rule, active = well fitted cell-killing curve with a large enough effect in the repeat runs; inconclusive = weak or mixed curves; inactive = flat fitted curve, though single readings scatter. Where a SMILES comes first, the peptide text is derived from it.
Quantity name: viability change, negative = cytotoxic

Recorded viability change, negative = cytotoxic, per entry:
>>> value_reported("CCCCCCCCCOC(=O)CCCCC(=O)OCCCCCCC")
"inactive"
>>> value_reported("COc1nc(N)nc2nc[nH]c12")
"inactive"
>>> value_reported("CC(C)NC(=O)c1ccc(C=O)cc1")
"inactive"
>>> value_reported("CC(C)Cn1cnc2c1c(=O)n(C)c(=O)n2C")
"inactive"
>>> value_reported("CCC(C)OC(C)CC (stereo unspecified)")
"inactive"
>>> value_reported("CC1(C)O[C@H]2CC(=O)OC[C@]23[C@H]2CC[C@@]4(C)[C@H](c5ccoc5)OC(=O)[C@H]5O[C@]54[C@]2(C)C(=O)C[C@@H]13")
"inactive"

[in] Give its viability change, negative = cytotoxic value. Item: CC(=O)N[C@@H](CO)C(=O)N[C@@H](CC(=O)O)C(=O)N[C@@H](CCCCN)C(=O)N1CCC[C@H]1C(=O)O (Ac-SDKP-OH)
[out] inactive

[in] Please give the result for COC(=O)/C=C\C(=O)O too.
[out] inactive

[in] Please give the result for CO[Si](CCCn1c(=O)n(CCC[Si](OC)(OC)OC)c(=O)n(CCC[Si](OC)(OC)OC)c1=O)(OC)OC too.
[out] inactive

[in] Please give the result for CN(C)CCCCl too.
[out] inactive

[in] Please give the result for Cc1ccc(C)c([N+](=O)[O-])c1 too.
[out] inactive

---

biological target: Thyrotropin receptor (Homo sapiens); test: qHTS assay to identify small molecule antagonists of the thyroid stimulating hormone receptor (TSHR) signaling pathway (AID 1259385); conditions: TSHR-HEK293 cAMP HTRF, TSH-stimulated antagonist mode; series mostly up to 92.4 µM; note: % is set by controls: 0 for no effect and ±100 for the full control effect; nearly all actives have a fitted effect of over 20% in size
Results filed as inconclusive are left out. Activity calls are given as the source filed them. Calls follow the shape of the full dose curve.
Quantity name: activity change, negative = inhibition

Recorded activity change, negative = inhibition, per entry:
>>> value_reported("CNCCS(=O)(=O)O")
"inactive"
>>> value_reported("CCOCCOCC")
"inactive"
>>> value_reported("CCC(=O)Oc1ccc2c(c1)CC[C@@H]1[C@@H]2CC[C@@]2(C)[C@H]1C[C@@H](OC(=O)CC)[C@@H]2OC(=O)CC")
"inactive"
>>> value_reported("COS(=O)(=O)O")
"inactive"
>>> value_reported("CN(C)CC/C=C1/c2ccccc2COc2ccc(CC(=O)O)cc21")
"inactive"

[in] Give its activity change, negative = inhibition value. Item: COc1nc(N)nc2nc[nH]c12
[out] inactive

[in] Please give the result for O=C(Cn1ccnc1[N+](=O)[O-])NCc1ccccc1 too.
[out] inactive

[in] Please give the result for CC1c2ccccc2CN1NC(=O)c1ccc(Cl)c(S(N)(=O)=O)c1 (stereo not drawn) too.
[out] inactive

[in] Please give the result for CCn1cc(C(=O)O)c(=O)c2cnc(N3CCCC3)nc21 too.
[out] -0.0847% [at 8.39 µM] (inactive)

[in] Please give the result for N[C@@H](CSCCCO)C(=O)O too.
[out] -0.731% [at 19 µM] (inactive)

---

Experiment: qHTS assay to identify small molecule agonists of the estrogen related receptor (ERR) signaling pathway from Tox21 library (AID 1224849); note: % is set by controls: 0 for no effect and ±100 for the full control effect; nearly all actives have a fitted effect of over 15% in size
Details: ERR reporter cell line, ONE-Glo luciferase, 18 h; at 92.4 µM (top of the series) unless noted
Method: National Center for Advancing Translational Sciences [NCATS] NIH Chemical Genomics Center [NCGC] U.S. Environmental Protection Agency [EPA] National Institutes of Environmental Health Sciences [NIEHS] National Toxicology Program [NTP] […] The ERR cells were dispensed at 2,000 cells/5 ul/well in 1536-well white plates using a Multidrop dispenser. […] After 30-minute incubation at room temperature, the luminescence intensity in the plates was measured using a ViewLux plate reader.
Calls of active or inactive are those of the source. Calls come from the whole dose curve.
Measured activity change, positive = activation accompanies every entry in the list below.

Recorded activity change, positive = activation, per entry:
>>> value_reported("Fc1ccccc1")
"8.1% (inactive)"
>>> value_reported("OC[C@@H](O)C(O)[C@@H](O)CO (some centres undefined)")
"9.91% (inactive)"
>>> value_reported("CCCCCCCCCCCCCBr")
"3.01% (inactive)"
>>> value_reported("CN(C)CCCO[C@@H]1[C@H]2OC(C)(C)O[C@H]2O[C@@H]1C(O)CO (some centres undefined)")
"6.19% [at 42.5 µM] (inactive)"
>>> value_reported("ONc1ccccc1")
"20.7% (active)"

[in] Give its activity change, positive = activation value. Item: O=C(O)CCCCCC(=O)O
[out] 1.8% (inactive)

[in] Please give the result for CC/C=C\CCOC(=O)c1ccccc1O too.
[out] 2.25% (inactive)

[in] Please give the result for CC1CCc2c(N3CCC(O)CC3)c(F)cc3c(=O)c(C(=O)O)cn1c23 (centres undefined) too.
[out] -17.9% [at 42.5 µM] (inactive)

[in] Please give the result for CC(C)(C)NC[C@H](O)COc1cccc2c1CCCC2=O too.
[out] 4.14% [at 42.5 µM] (inactive)

[in] Please give the result for CC(C)C[C@@H]1[C@H](c2ccccc2)OC(=O)N1CCCN1CCCCCC1 too.
[out] 0.937% [at 42.5 µM] (inactive)

---

experiment: qHTS assay to identify small molecule antagonists of the retinoid-related orphan receptor gamma (ROR-gamma) signaling pathway - cell viability counter screen (AID 1159520); conditions: Tet-on RORgamma CHO cells viability, ATP luminescence, 16 h; series mostly up to 92.4 µM; note: % is set by controls: 0 for no effect and ±100 for the full control effect; nearly all actives have a fitted effect of over 50% in size
Inconclusive results are not listed. Activity calls are given as the source filed them. The call rests on the fitted dose curve; in most records, active means well fitted cell-killing curve with a large enough effect in the repeat runs; inconclusive means weak or mixed curves, or effect the other way; inactive means no such curve, though single readings can be large or run the other way. Positions of bridges follow the written chain, without caps; N, C: chain ends. Non-standard residues stand in square brackets, D forms with d. Residues, ends and D or L forms follow the SMILES beside them. hArg = N=C(N)NCCCC[C@H](N)C(=O)O; Mpa = O=C(O)CCS
Quantity name: activity, negative = cytotoxicity

Recorded activity, negative = cytotoxicity, per entry:
>>> value_reported("C/C=C(\\C)C(C)=O")
"inactive"
>>> value_reported("CC(=O)O[C@H]1C[C@@H]2CC[C@@]1(C)C2(C)C")
"inactive"
>>> value_reported("OCC1(CO)COCOC1")
"inactive"
>>> value_reported("CC/C=C\\CCOC(=O)c1ccccc1O")
"inactive"
>>> value_reported("CC1(C)O[C@H]2CC(=O)OC[C@]23[C@H]2CC[C@@]4(C)[C@H](c5ccoc5)OC(=O)[C@H]5O[C@]54[C@]2(C)C(=O)C[C@@H]13")
"inactive"
>>> value_reported("CO[C@@]1(NC(=O)Cc2cccs2)C(=O)N2C(C(=O)O)=C(COC(N)=O)CS[C@@H]21")
"inactive"
>>> value_reported("C[Si]1(C)O[Si](C)(C)O[Si](C)(C)O[Si](C)(C)O[Si](C)(C)O1")
"inactive"
>>> value_reported("OC[C@H]1O[C@@H](O[C@@H]2[C@@H](CO)O[C@](O)(CO)[C@H]2O)[C@H](O)[C@@H](O)[C@H]1O")
"inactive"
>>> value_reported("CC1(C)CC(OC(=O)CCCCCCCCC(=O)OC2CC(C)(C)NC(C)(C)C2)CC(C)(C)N1")
"1.22% [at 19 µM] (inactive)"
>>> value_reported("CCCC(=O)Nc1ccc(OCC(O)CNC(C)C)c(C(C)=O)c1 (stereo not drawn)")
"inactive"

[in] Give its activity, negative = cytotoxicity value. Item: CC(C)COC(=O)c1ccccc1
[out] inactive

[in] Please give the result for C[C@@H](O)C(=O)O too.
[out] inactive

[in] Please give the result for CC(C)NCC(O)c1ccc2ccccc2c1 (stereo not drawn) too.
[out] inactive

[in] Please give the result for CN(C)C(C)(C)CO too.
[out] inactive

[in] Please give the result for CCCCCCCCCCCCCCC(=O)NC(CO)CCCCCCCCCCCCCC (stereo not drawn) too.
[out] inactive

[in] Please give the result for NC(=O)[C@@H]1CSSCCC(=O)N[C@@H](CCCCN=C(N)N)C(=O)NCC(=O)N[C@@H](CC(=O)O)C(=O)N[C@@H](Cc2c[nH]c3ccccc23)C(=O)N2CCC[C@H]2C(=O)N1 ([Mpa][hArg]GDWPC-NH2; disulfide 1-7) too.
[out] inactive

[in] Please give the result for O=C(O)CSCC(=O)NC1CCSC1=O (stereo not drawn) too.
[out] inactive

[in] Please give the result for O=NN(CCCl)C(=O)NC1CCCCC1 too.
[out] inactive

[in] Please give the result for CC(=O)C(C)O (stereo not drawn) too.
[out] inactive

[in] Please give the result for O=C(NCN1CCOCC1)c1cnccn1 too.
[out] inactive
